system: hALDH2 (UniProt P05091)
Sequence (P05091 1-517): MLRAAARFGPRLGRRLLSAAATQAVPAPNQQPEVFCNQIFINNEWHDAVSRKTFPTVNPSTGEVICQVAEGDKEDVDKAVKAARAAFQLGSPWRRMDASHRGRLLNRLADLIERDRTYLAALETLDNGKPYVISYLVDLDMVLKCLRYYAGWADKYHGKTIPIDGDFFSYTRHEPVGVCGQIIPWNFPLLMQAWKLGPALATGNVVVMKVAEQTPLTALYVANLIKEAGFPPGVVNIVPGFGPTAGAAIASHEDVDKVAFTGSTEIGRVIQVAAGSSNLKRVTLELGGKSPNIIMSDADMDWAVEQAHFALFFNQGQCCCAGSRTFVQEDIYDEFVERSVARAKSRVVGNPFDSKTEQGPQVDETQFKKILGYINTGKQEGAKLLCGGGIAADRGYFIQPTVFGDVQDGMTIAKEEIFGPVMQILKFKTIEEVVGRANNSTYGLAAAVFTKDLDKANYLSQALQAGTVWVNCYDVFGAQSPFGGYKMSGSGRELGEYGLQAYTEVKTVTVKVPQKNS
testProtocol: ALDH-2 assay (inhibition of hALDH2)
Type: biochemical, human
pIC50: −log10 of the molar value.
Values of pIC50 greater than or equal to 7 map to Yes; values below map to No.

Worked examples follow.
* C=CCOC(=O)c1cccc(COc2ccc3c(=O)n(-c4ccc(O)cc4)cnc3c2)c1 | No
* O=c1c2ccc(OCc3noc(-c4cccc(C(F)(F)F)c4)n3)cc2ncn1-c1ccc(O)cc1 | Yes

Hi, just wondering whether `NC(=O)c1cccc(COc2ccc3c(=O)n(-c4ccc(O)cc4)cnc3c2)c1` shows pIC50 of 7 or higher.
Yes
